src = patent US20230089073A1

- Measurement Target: human GLP-1 receptor (Homo sapiens)
- Construct: expressed in transfected cells
- Sequence (P43220 24-463): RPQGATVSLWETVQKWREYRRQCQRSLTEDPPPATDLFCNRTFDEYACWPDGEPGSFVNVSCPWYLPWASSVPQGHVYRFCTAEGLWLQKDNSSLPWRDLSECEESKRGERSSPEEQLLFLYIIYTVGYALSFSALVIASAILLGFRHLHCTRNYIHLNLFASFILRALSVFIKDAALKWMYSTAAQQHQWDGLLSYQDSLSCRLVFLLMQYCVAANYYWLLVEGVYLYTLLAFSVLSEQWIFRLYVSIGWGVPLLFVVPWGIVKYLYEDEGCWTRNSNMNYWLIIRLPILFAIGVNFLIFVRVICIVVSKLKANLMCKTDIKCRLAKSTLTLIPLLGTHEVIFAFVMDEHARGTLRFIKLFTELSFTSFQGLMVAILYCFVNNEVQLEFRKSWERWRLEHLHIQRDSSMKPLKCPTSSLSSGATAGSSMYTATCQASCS
- Protocol Summary: GLP-1R cAMP Assay
- Type: cell-based
- Condition Info: cAMP accumulation in CHO cells stably overexpressing the human GLP-1 receptor; 30 min treatment; HitHunter cAMP kit; read-out: EC50
pEC50: −log10 of the molar value.
Reported Property: pEC50

// worked examples, pEC50 included
• O=C(O)c1ccc2nc(CN3CCC(Oc4ccnc(COc5ccc(F)cc5F)n4)CC3)n(C[C@@H]3CCO3)c2c1 [Compound 479] = > 7.30
• O=C(O)c1ccc2nc(CN3CCN(C(=O)c4cccc(Oc5ccc(C(F)(F)F)cc5Cl)c4)CC3)n(C[C@@H]3CCO3)c2c1 [Example 2] = < 6.30
• O=C(O)c1ccc2nc(CN3CCC(Cc4cccc(COc5ccc(Cl)cc5Cl)c4F)CC3)n(C[C@@H]3CCO3)c2c1 [Compound 135] = 6.30 to 7.30
• N#Cc1ccc(OCc2cc(OC3CCN(Cc4nc5ccc(C(=O)O)cc5n4C[C@@H]4CCO4)CC3)c(F)cn2)c(F)c1 [Example 367] = > 7.30
• N#Cc1cc(F)c(F)cc1OCc1nccc(OC2CCN(Cc3nc4c(F)cc(C(=O)O)cc4n3C[C@@H]3CCO3)CC2)n1 [Compound 505] = > 7.30
• C[C@H]1C[C@@H](Oc2ccnc(COc3ccc(C#N)cc3F)n2)CCN1Cc1nc2ccc(C(=O)O)cc2n1C[C@H]1CCOC1 [Compound 515] = > 7.30

Note: attention shifts to another entry.
Prompt: Need pEC50, item N#Cc1ccc(OCc2cccc(OC3CCN(Cc4nc5ccc(C(=O)O)cc5n4C[C@@H]4CCO4)CC3)n2)c(F)c1 [Example 285]
Completion: > 7.30
